targetUnderTest: HIS-NDM-1 (New Delhi metallo-beta-lactamase 1) (E. coli, UniProt C7C422 29-270)
Sequence (C7C422 29-270): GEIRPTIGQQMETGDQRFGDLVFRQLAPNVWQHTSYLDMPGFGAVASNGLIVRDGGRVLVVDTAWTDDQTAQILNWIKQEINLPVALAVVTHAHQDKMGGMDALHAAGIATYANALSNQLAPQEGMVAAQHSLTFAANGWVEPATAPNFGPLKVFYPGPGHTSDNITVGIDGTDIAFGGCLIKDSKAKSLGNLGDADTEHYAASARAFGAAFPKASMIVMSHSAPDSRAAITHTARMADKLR
assaySummary: SPR; aptamer immobilized; 20 mM Tris-HCl pH 7.4, 140 mM NaCl, 5 mM MgCl2, 1 mM CaCl2, 1 mM KCl; FLAA/MST with 0.1% BSA and 0.05% Tween 20 (FLAA at RT); SPR without BSA, 0.005% Tween 20
testConditions: protein: commercial; tags: N-terminal His6; label: 5'-BiotinTEG
observable: Kd

binder="CGTCATAGGTACCATGGGGGACTGCTCGGGATTGCGGATTCATG (ssDNA) [NDM1-H14-01-FR]" observable=Kd result="5.91 nM"

From: paper PMC9106695
